Biological target: T1, human TREM2 (triggering receptor expressed on myeloid cells 2) (human) (UniProt Q9NZC2)
T1 sequence (looked up): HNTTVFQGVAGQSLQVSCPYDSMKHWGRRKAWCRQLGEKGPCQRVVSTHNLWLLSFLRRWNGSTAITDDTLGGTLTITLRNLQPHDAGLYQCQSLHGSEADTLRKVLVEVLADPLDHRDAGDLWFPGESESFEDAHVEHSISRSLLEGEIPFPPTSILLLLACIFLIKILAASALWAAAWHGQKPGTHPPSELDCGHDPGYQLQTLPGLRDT
Experiment: 2nd screen, 10 nM Ab
Measurement name: Binding Signal (fold over 6E7 parental antibody) (fold)
Respond with the bare value in fold.

Below: 2 binders and their reported Binding Signal (fold over 6E7 parental antibody).
6E7 antibody affinity modulation variant V61 (antibody, V domains shown) VH: EVQLVQSGAEVKKPGESLKISCKGSGYSFSSYWIAWVRQMPGKGLEWMGIIYPGDSDTRYNPSFQGQVTISADKSISTAYLQWSSLKASDTAMYFCARGRTFYYDSSDYFDYWGQGTLVTVSS VL: DIQMTQSPSSVSASVGDRVTITCRASQGISSWLAWYQQKPGKAPKLLIYAASSLVNGVPSRFSGSGSGTDFTLTISSLQPEDFATYFCQQADSLPRTFGQGTKLEIK    5.22
6E7 antibody affinity modulation variant V89 (antibody, V domains shown) VH: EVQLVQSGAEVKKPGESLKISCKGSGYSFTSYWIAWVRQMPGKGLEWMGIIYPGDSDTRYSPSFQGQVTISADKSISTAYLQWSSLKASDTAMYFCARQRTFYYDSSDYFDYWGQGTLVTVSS VL: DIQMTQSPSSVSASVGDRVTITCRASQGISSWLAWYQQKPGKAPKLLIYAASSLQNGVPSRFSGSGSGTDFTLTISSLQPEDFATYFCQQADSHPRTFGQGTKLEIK    1.46

Here's the next entry for you.
// field: Binding Signal (fold over 6E7 parental antibody); key: 6E7 antibody affinity modulation variant V73 (antibody, V domains shown) VH: EVQLVQSGAEVKKPGESLKISCKGSGYSFGSYWIAWVRQMPGKGLEWMGIIYPGDSDTRYSPGFQGQVTISADKSISTAYLQWSSLKASDTAMYFCARGRTFYYDSSDYFDYWGQGTLVTVSS VL: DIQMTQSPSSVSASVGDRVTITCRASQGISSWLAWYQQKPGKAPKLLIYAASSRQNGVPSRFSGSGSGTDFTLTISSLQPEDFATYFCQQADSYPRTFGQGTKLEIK ; value = 5.44
